Reference for the values: ChEMBL document CHEMBL1137301

Target: Melatonin receptor (Homo sapiens) (UniProt P48039+P49286)
Sequence (P48039 whole entry, looked up, one chain of several): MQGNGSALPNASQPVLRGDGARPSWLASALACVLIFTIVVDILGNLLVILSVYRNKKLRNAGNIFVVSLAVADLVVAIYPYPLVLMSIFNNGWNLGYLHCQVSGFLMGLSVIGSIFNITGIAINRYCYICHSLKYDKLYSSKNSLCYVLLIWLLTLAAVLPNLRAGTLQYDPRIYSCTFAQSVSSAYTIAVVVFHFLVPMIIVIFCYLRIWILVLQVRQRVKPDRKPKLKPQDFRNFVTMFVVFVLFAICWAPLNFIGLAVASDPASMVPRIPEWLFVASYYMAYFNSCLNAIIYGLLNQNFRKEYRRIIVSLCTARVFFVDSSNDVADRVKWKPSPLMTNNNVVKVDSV
Test: Selectivity for human MT2 receptor over MT1 receptor
Format: protein assay
Measurement kind: Selectivity ratio
# respond with the number and nothing more

Below, 3 molecules whose answers are already recorded.
[
  {
    "Molecule": "COc1cccc(C(=CCNC(C)=O)c2cccc(OC)c2)c1",
    "System under test": "Melatonin receptor (Homo sapiens) (UniProt P48039+P49286)",
    "Selectivity ratio": 214
  },
  {
    "Molecule": "COc1cccc(C(CCNC(C)=O)c2ccccc2)c1 (racemic)",
    "System under test": "Melatonin receptor (Homo sapiens) (UniProt P48039+P49286)",
    "Selectivity ratio": 407
  },
  {
    "Molecule": "COc1cccc(/C(=C/CNC(=O)C2CCC2)c2ccccc2)c1",
    "System under test": "Melatonin receptor (Homo sapiens) (UniProt P48039+P49286)",
    "Selectivity ratio": 178
  }
]

Below: the item to evaluate.
Q: Consider the molecule shown here: CCCC(=O)NCCC(c1ccccc1)c1cccc(OC)c1 (racemic) What is its recorded Selectivity ratio?
A: 209

---

Target: Melatonin receptor type 1A (Homo sapiens)
Experiment: Intrinsic activity at human MT1 receptor expressed in NIH3T3 cells assessed as stimulation of [35S]GTPgammaS binding relative to MLT
Format: functional, cell-based
Overview of reported Intrinsic activity across a group of compounds:
Could you respond with only the numeric value?

Record excerpt, results attached:
[
  {
    "Compound": "COc1cccc(C(=CCNC(C)=O)c2cccc(OC)c2)c1",
    "Readout value": 0.2
  },
  {
    "Compound": "CC(=O)NCCC(c1ccccc1)c1ccccc1",
    "Readout value": -0.19
  },
  {
    "Compound": "COc1cccc(C(CCNC(C)=O)c2ccccc2)c1 (racemic)",
    "Readout value": 0.24
  }
]

Q: For the compound shown here, CCCC(=O)NCCC(c1ccccc1)c1cccc(OC)c1 (racemic) , give the reported Intrinsic activity.
A: 0.21

Q: Need Intrinsic activity of COc1cccc(C(CNC(C)=O)Cc2ccccc2)c1 (stereo not drawn) , thanks.
A: -0.23

Q: I'd like to know its Intrinsic activity. The compound in question is CC(=O)NCC(Cc1ccccc1)c1ccccc1 (stereo not drawn)
A: -0.3

Q: For the compound "COc1cccc(/C(=C\CNC(C)=O)c2ccccc2)c1" , what Intrinsic activity is on record?
A: 0.45

Q: Would you mind telling me what Intrinsic activity value was observed for "COc1cccc(/C(=C\CNC(=O)C2CCC2)c2ccccc2)c1" ?
A: -0.04

Q: If you can, please state the reported Intrinsic activity value of CCC(=O)NCCC(c1ccccc1)c1cccc(OC)c1 (racemic) .
A: 0.31

Q: Give its Intrinsic activity value. Item: "CC(=O)NCC=C(c1ccccc1)c1ccccc1"
A: -0.03

---

Target: Melatonin receptor type 1B (Homo sapiens) (UniProt P49286)
Test: Intrinsic activity at human MT2 receptor expressed in NIH3T3 cells assessed as stimulation of [35S]GTP-gamma-S binding relative to MLT
Format: functional, cell-based
Each record is given MET if its reported Intrinsic activity is strictly below 0.2. Records at or above 0.2 are given NOT MET.

Completed entries (count: 8):
[
  {
    "Compound": "COc1cccc(/C(=C/CNC(=O)C2CCC2)c2ccccc2)c1",
    "Answer label": "MET"
  },
  {
    "Compound": "COc1cccc(C(CCNC(C)=O)c2ccccc2)c1 (racemic)",
    "Answer label": "MET"
  },
  {
    "Compound": "CCC(=O)NCC(Cc1ccccc1)c1cccc(OC)c1 (stereo not drawn)",
    "Answer label": "MET"
  },
  {
    "Compound": "COc1cccc(C(=CCNC(C)=O)c2cccc(OC)c2)c1",
    "Answer label": "NOT MET"
  },
  {
    "Compound": "O=C(NCC=C(c1ccccc1)c1ccccc1)C1CCC1",
    "Answer label": "MET"
  },
  {
    "Compound": "CCCC(=O)NCCC(c1ccccc1)c1cccc(OC)c1 (racemic)",
    "Answer label": "NOT MET"
  },
  {
    "Compound": "COc1cccc(/C(=C/CNC(C)=O)c2ccccc2)c1",
    "Answer label": "NOT MET"
  },
  {
    "Compound": "CC(=O)NCCC(c1ccccc1)c1ccccc1",
    "Answer label": "MET"
  }
]

Q: Determine if "COc1ccc(Cc2ccccc2)c(CCNC(C)=O)c1" shows Intrinsic activity strictly lower than 0.2.
A: MET

Q: Just wondering, is Intrinsic activity of "COc1cccc(/C(=C\CNC(C)=O)c2ccccc2)c1" below 0.2?
A: NOT MET

Q: Please state whether Intrinsic activity is below 0.2 for COc1cccc(C(CNC(C)=O)Cc2ccccc2)c1 (stereo not drawn)
A: MET

---

Target protein (sequence): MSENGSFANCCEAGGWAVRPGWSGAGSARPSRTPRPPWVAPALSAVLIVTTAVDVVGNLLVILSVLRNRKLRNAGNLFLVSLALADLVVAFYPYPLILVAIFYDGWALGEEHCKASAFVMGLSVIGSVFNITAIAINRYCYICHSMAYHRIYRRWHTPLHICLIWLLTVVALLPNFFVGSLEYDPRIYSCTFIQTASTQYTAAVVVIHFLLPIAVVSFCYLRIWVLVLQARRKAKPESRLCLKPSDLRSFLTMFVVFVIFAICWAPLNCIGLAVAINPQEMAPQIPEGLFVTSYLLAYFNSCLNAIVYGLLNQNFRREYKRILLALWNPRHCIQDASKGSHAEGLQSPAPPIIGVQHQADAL
Ki by entry:
Reply with a number, then the unit it belongs to.

[
  {
    "Molecule": "COc1cccc(C(=CCNC(C)=O)c2cccc(OC)c2)c1",
    "Ki": "0.275 nM"
  },
  {
    "Molecule": "CCC(=O)NCC(Cc1ccccc1)c1cccc(OC)c1 (stereo not drawn)",
    "Ki": "191 nM"
  },
  {
    "Molecule": "CCC(=O)NCCC(c1ccccc1)c1cccc(OC)c1 (racemic)",
    "Ki": "5.01 nM"
  },
  {
    "Molecule": "CC(=O)NCCC(c1ccccc1)c1ccccc1",
    "Ki": "141 nM"
  },
  {
    "Molecule": "CCC(=O)NCCc1cccc(Cc2ccccc2)c1",
    "Ki": "661 nM"
  }
]

Q: Item "O=C(NCC=C(c1ccccc1)c1ccccc1)C1CCC1" has what recorded Ki?
A: 13.2 nM

Q: Value lookup for Ki; key = "CC(=O)NC/C(=C/c1ccccc1)c1ccccc1"
A: 525 nM

Q: // query Ki value for entry COc1cccc(C(CCNC(C)=O)c2ccccc2)c1 (racemic)
A: 5.37 nM

---

pKi values recorded for Melatonin receptor type 1A (Homo sapiens, UniProt P48039)
Worth noting: pKi values are minus log10 of concentrations stated in mol/L.

Use the examples below as a reference point.
[
  {
    "Compound": "CCC(=O)NCCC(c1ccccc1)c1cccc(OC)c1 (racemic)",
    "pKi": 6.44
  },
  {
    "Compound": "COc1cccc(/C(=C\\CNC(C)=O)c2ccccc2)c1",
    "pKi": 6.64
  },
  {
    "Compound": "COc1cccc(C(=CCNC(C)=O)c2cccc(OC)c2)c1",
    "pKi": 7.23
  }
]

Turning to the following compound.
Q: Can you look up pKi on Melatonin receptor type 1A (Homo sapiens, UniProt P48039) for "O=C(NCC=C(c1ccccc1)c1ccccc1)C1CCC1" ?
A: 6.04

---

Target: Melatonin receptor type 1A (Homo sapiens, UniProt P48039)
Sequence (P48039 whole entry): as the sequence (P48039 whole entry, looked up, one chain of several) above
Experiment: Intrinsic activity at human MT1 receptor expressed in NIH3T3 cells assessed as stimulation of [35S]GTPgammaS binding relative to MLT
Format: functional, cell-based
Recorded Intrinsic activity values for a group of compounds are listed next.
// no unit, no text: just the number

[
  {
    "Compound": "CCC(=O)NCC(Cc1ccccc1)c1cccc(OC)c1 (stereo not drawn)",
    "System under test": "Melatonin receptor type 1A (Homo sapiens, UniProt P48039)",
    "Measurement kind": "Intrinsic activity",
    "Readout value": -0.13
  },
  {
    "Compound": "COc1ccc(Cc2ccccc2)c(CCNC(C)=O)c1",
    "System under test": "Melatonin receptor type 1A (Homo sapiens, UniProt P48039)",
    "Measurement kind": "Intrinsic activity",
    "Readout value": 0.24
  },
  {
    "Compound": "CC(=O)NC/C(=C/c1ccccc1)c1ccccc1",
    "System under test": "Melatonin receptor type 1A (Homo sapiens, UniProt P48039)",
    "Measurement kind": "Intrinsic activity",
    "Readout value": -0.23
  },
  {
    "Compound": "O=C(NCC=C(c1ccccc1)c1ccccc1)C1CCC1",
    "System under test": "Melatonin receptor type 1A (Homo sapiens, UniProt P48039)",
    "Measurement kind": "Intrinsic activity",
    "Readout value": -0.18
  },
  {
    "Compound": "COc1cccc(/C(=C/CNC(C)=O)c2ccccc2)c1",
    "System under test": "Melatonin receptor type 1A (Homo sapiens, UniProt P48039)",
    "Measurement kind": "Intrinsic activity",
    "Readout value": 0.54
  },
  {
    "Compound": "CC(=O)NC/C(=C\\c1ccccc1)c1ccccc1",
    "System under test": "Melatonin receptor type 1A (Homo sapiens, UniProt P48039)",
    "Measurement kind": "Intrinsic activity",
    "Readout value": 0.11
  },
  {
    "Compound": "CCC(=O)NCCc1cccc(Cc2ccccc2)c1",
    "System under test": "Melatonin receptor type 1A (Homo sapiens, UniProt P48039)",
    "Measurement kind": "Intrinsic activity",
    "Readout value": 0.24
  }
]

Q: Any idea what Intrinsic activity was measured for "COc1cccc(/C(=C/CNC(=O)C2CCC2)c2ccccc2)c1" ?
A: 0.29
